The entries below pair compounds with IC50 values for ERAP1 (Homo sapiens), as found in several publications.

# example entries with known answers
compound=CCc1ccc(C(=O)O)cc1S(=O)(=O)Nc1cc(-c2cnn(C)c2)ccc1N1CCCCC1 reading="< 500 nM"
compound=CCc1ccc(C(=O)O)cc1S(=O)(=O)Nc1cc(-n2cnnn2)ccc1-c1cccc(F)c1 reading="< 500 nM"
compound=O=C(O)c1ccc(C2CC2)c(S(=O)(=O)Nc2cc(-c3ccns3)ccc2-c2cccc(F)c2)c1 reading="< 500 nM"
compound=CCc1ccc(C(=O)O)cc1S(=O)(=O)Nc1cc(Cl)ccc1N1CCCCC1 reading="< 500 nM"
compound=C#Cc1ccc(C(=O)O)cc1S(=O)(=O)Nc1cc(C#N)ccc1N1CCCCC1 reading="> 5000 nM"

Hi! What's the reported IC50 for N#Cc1cc(NS(=O)(=O)c2cc(C(=O)O)ccc2C2CC2)c(OCC2CCOC2)cc1Cl (stereo not shown) on ERAP1 (Homo sapiens)?
1 to 5 nM

Hi! What's the reported IC50 for O=C(O)c1ccc(C2CC2)c(S(=O)(=O)Nc2cc(-n3cnnn3)c(F)cc2N2CCCCC2)c1 on ERAP1 (Homo sapiens)?
< 500 nM

Hi! What's the reported IC50 for N#Cc1cc(NS(=O)(=O)c2cc(C(=O)O)ccc2C2CC2)c(OCC23COC(C2)C3)cc1Cl on ERAP1 (Homo sapiens)?
1 to 5 nM

Hi! What's the reported IC50 for N#Cc1cc(NS(=O)(=O)c2cc(C(=O)O)ccc2C2CC2)c(OCC2CCCC2)cc1Cl on ERAP1 (Homo sapiens)?
< 1 nM

Hi! What's the reported IC50 for CCc1ccc(C(=O)O)cc1S(=O)(=O)Nc1cc(C(F)(F)F)ccc1N1CCC(F)CC1 on ERAP1 (Homo sapiens)?
< 500 nM

Hi! What's the reported IC50 for N#Cc1cc(NS(=O)(=O)c2cc(C(=O)O)ccc2C2CC2)c(OCC2(F)CCC2)cc1Cl on ERAP1 (Homo sapiens)?
< 1 nM

====

The entries below pair compounds with IC50 values for ERAP1 (Homo sapiens), as found in several publications.

compound=O=C(O)c1ccc(C2CC2)c(S(=O)(=O)Nc2cc(-c3ccns3)c(Cl)cc2OC2CCCC2)c1 subject_of_test="ERAP1 (Homo sapiens)" property_measured=IC50 reading="< 1 nM"
compound=N#Cc1ccc(-c2ccccn2)c(NS(=O)(=O)c2cc(C(=O)O)ccc2C2CC2)c1 subject_of_test="ERAP1 (Homo sapiens)" property_measured=IC50 reading="< 500 nM"
compound=COc1ccc(C(=O)O)cc1S(=O)(=O)Nc1cc(C(F)(F)F)ccc1-c1ccccc1C#N subject_of_test="ERAP1 (Homo sapiens)" property_measured=IC50 reading="< 5000 nM"
compound=CCc1ccc(C(=O)O)cc1S(=O)(=O)Nc1cc(S(C)(=O)=O)ccc1-c1ccc(C#N)s1 subject_of_test="ERAP1 (Homo sapiens)" property_measured=IC50 reading="< 500 nM"
compound=COc1ccc(C(=O)O)cc1S(=O)(=O)Nc1cc(C#N)ccc1N1CCCCC1 subject_of_test="ERAP1 (Homo sapiens)" property_measured=IC50 reading="< 500 nM"
compound=COc1ccc(C(=O)O)cc1S(=O)(=O)Nc1cc(C(F)(F)F)ccc1-c1ccccc1Cl subject_of_test="ERAP1 (Homo sapiens)" property_measured=IC50 reading="< 5000 nM"
compound=O=C(O)c1ccc(C2CC2)c(S(=O)(=O)Nc2cc(C(F)(F)F)ccc2-n2cccc2)c1 subject_of_test="ERAP1 (Homo sapiens)" property_measured=IC50 reading="< 500 nM"
compound=COc1ccc(C(=O)O)cc1S(=O)(=O)Nc1cc(C#N)ccc1N1CCC[C@H](O)C1 subject_of_test="ERAP1 (Homo sapiens)" property_measured=IC50 reading="< 500 nM"

Hi! What's the reported IC50 for COc1ccc(C(=O)O)cc1S(=O)(=O)Nc1cc(C(F)(F)F)ccc1-c1ccnn1CC(C)C on ERAP1 (Homo sapiens)?
< 5000 nM

Hi! What's the reported IC50 for COc1ccc(C(=O)O)cc1S(=O)(=O)Nc1cc(C(F)(F)F)ccc1N1CCCC1 on ERAP1 (Homo sapiens)?
< 5000 nM
